Tested on: HCT-116 colon
Test: NCI tumour cell line growth inhibition, 48 h
reported.metric: GI50

Before answering, review these 3 worked examples.
1) CCCCCCCCCCCCCCNc1nc(C(=O)OCC)ncc1-c1ccc(C(F)(F)F)cc1 ... > 100000 nM
2) COc1ccc(OC)c(Nc2nc3ccccc3c3c2-c2ccc(OC)cc2C3=O)c1 ... > 100000 nM
3) Cc1cc(C)c(S(=O)(=O)N2CCN(c3cc4c(cc3F)c(=O)c(C(=O)O)cn4C3CC3)CC2)c(C)c1 ... 2980 nM

Answer for every listed entry: what is its GI50? The entries follow.
1. O=C(N/N=C\c1cc(Cl)ccc1O)c1ccncc1
2. Nc1c(C(=O)Nc2ccccc2)sc2nc3c(cc12)C(O)CCC3 (stereo unspecified)
3. Nc1ncc2ccc3c(ccn3C3CC(O)C(CO)O3)c2n1 (stereo unspecified)
4. NCCSCC(N)C(=O)O (stereo unspecified)
5. COC(=O)N1c2ccc3c(nc(Cc4ccccc4)n3[C@H]3CCC[C@H](C(=O)O)C3)c2CC[C@@H]1C
6. COc1cc(C(=O)/C=C/c2cc(-c3cc(OC)c(OC)c(OC)c3)n[nH]2)cc(OC)c1OC

1. 1630 nM
2. 488 nM
3. > 100000 nM
4. > 497000 nM
5. 17600 nM
6. 1310 nM

Answer for every listed entry: what is its GI50? The entries follow.
1. O=c1c2sc3ccccc3c2nnn1-c1ccc(F)c(Cl)c1
2. Cc1ccc2nc3ccccc3c(NCc3ccccc3)c2c1

["3600 nM", "1440 nM"]

Data provenance: PubChem BioAssay (NCI)
